- system: T1, QCD-32g58 SLP (surface layer protein of C. difficile strain QCD-32g58, HMW and LMW subunits) (Clostridioides difficile QCD-32g58 …, UniProt A0A9R0BMB3, strain)
- T1 construct: low-molecular-weight (LMW) subunit of the surface layer protein, cut from the precursor SlpA by Cwp84, C. difficile strain QCD-32g58 (ribotype 027); predicted mass 33.9 kDa; high-molecular-weight (HMW) subunit of the surface layer protein, cut from the precursor SlpA by Cwp84, C. difficile strain QCD-32g58 (ribotype 027); predicted mass 44.2 kDa; Both subunits come from one precursor, SlpA; also …
- experiment-summary: SPR; Biacore 3000; SEC-purified QCD-32g58 SLP amine-coupled to a CM5 chip, VHH monomer fractions injected at various concentrations; 25 °C, 10 mM HEPES pH 7.4, 150 mM NaCl, 3 mM EDTA, 0.005 % P20; KD by steady-state analysis
- condition-context: both partners purified
measured-quantity: Kd (nM)

binder="SLP_VHH50 (VHH, From an immune llama phage display library panned on QCD-32g58 SLP; source: monomeric SEC fractions for SPR; not shown: His6, C-terminal, kept) VHH: QVKLEESGGGLVQPGGSLRLSCAASGFTLDYYTIGWFRQAPGKEREGVACISSDDRTYYVDSVKGRFAISRDNVKNTVYLQMNNLKPEDTAVYYCASKESVFLIATMKGCAPGHDDYWGQGTQVTVSS" measurement_units=nM observed=75
binder="SLP_VHH26 (VHH, From an immune llama phage display library panned on QCD-32g58 SLP; source: monomeric SEC fractions for SPR; not shown: His6, C-terminal, kept) VHH: QVKLEESGGGLVQAGGSLRLSCAASGRTFTNYAMAWFRQASGKEREFVAIISQSGGRTYYGDSVKGRFTISRDNAKNTVYLQLNSLQPEDTGVYYCAAGDSPYYYSRSRYDLWGPGTQVTVSS" measurement_units=nM observed=580
